tested on: Antibody to Immunogen VII; type: binding, sheep; settings: Cross-reactants at 100 ng/ml; Antibody to Immunogen VII
Counter-ions that a name gives are not always drawn.
endpoint-name: %B/B0 (%)
Only the number, expressed in %, is required.

INSERT INTO assay_data (molecule, endpoint_name, readout_value) VALUES
  ('O=C(O)Cc1c[nH]c2ccc(O)cc12 [5-hydroxyindole-3-acetic acid (5-HIAA), 5-hydroxyindole-3-acetic acid]', '%B/B0', 99.46),
  ('NCCc1c[nH]c2ccc(O)cc12 [Serotonin HCl]', '%B/B0', 99.83),
  ('COc1cccc(CC(=O)c2cn(CCC3CCCCC3)c3ccccc23)c1 [RCS-8 3-methoxy isomer]', '%B/B0', 93.73),
  ('CCCCCCn1cc(C(=O)c2cccc3ccccc23)c2ccccc21 [JWH-019]', '%B/B0', 70.05),
  ('O=C(c1cccc2ccccc12)c1cn(CCN2CCOCC2)c2ccc(O)cc12 [JWH-200 5-hydroxyindole metabolite]', '%B/B0', 82.42),
  ('CCCCCn1cc(C(=O)c2c(CC)ccc3ccccc23)c2ccccc21 [JWH-210 2-ethylnaphthyl isomer]', '%B/B0', 96.13),
  ('CCCCCn1cc(C(=O)Cc2cccc(OC)c2)c2ccccc21 [JWH-302]', '%B/B0', 104.92);

// next entry
Quick check: %B/B0 of CCCCCCCC(C)(C)c1ccc([C@H]2CCC[C@@H](O)C2)c(O)c1 [CP-49,497-C8-homologue] ?
98.55
